These measurements were taken from patent US12692294B2.

- Experimental target: T1, ErbB4 (Rattus norvegicus, UniProt Q62956)
- T1 construct: forming the ErbB2/ErbB4 complex in cardiomyocytes and the ErbB2/ErbB3 complex in Schwann cells; endogenous in cells; host or cells: primary neonatal rat cardiomyocytes (Sprague Dawley pups, 0 to 4 days old)
- T1 sequence (Q62956 26-1308): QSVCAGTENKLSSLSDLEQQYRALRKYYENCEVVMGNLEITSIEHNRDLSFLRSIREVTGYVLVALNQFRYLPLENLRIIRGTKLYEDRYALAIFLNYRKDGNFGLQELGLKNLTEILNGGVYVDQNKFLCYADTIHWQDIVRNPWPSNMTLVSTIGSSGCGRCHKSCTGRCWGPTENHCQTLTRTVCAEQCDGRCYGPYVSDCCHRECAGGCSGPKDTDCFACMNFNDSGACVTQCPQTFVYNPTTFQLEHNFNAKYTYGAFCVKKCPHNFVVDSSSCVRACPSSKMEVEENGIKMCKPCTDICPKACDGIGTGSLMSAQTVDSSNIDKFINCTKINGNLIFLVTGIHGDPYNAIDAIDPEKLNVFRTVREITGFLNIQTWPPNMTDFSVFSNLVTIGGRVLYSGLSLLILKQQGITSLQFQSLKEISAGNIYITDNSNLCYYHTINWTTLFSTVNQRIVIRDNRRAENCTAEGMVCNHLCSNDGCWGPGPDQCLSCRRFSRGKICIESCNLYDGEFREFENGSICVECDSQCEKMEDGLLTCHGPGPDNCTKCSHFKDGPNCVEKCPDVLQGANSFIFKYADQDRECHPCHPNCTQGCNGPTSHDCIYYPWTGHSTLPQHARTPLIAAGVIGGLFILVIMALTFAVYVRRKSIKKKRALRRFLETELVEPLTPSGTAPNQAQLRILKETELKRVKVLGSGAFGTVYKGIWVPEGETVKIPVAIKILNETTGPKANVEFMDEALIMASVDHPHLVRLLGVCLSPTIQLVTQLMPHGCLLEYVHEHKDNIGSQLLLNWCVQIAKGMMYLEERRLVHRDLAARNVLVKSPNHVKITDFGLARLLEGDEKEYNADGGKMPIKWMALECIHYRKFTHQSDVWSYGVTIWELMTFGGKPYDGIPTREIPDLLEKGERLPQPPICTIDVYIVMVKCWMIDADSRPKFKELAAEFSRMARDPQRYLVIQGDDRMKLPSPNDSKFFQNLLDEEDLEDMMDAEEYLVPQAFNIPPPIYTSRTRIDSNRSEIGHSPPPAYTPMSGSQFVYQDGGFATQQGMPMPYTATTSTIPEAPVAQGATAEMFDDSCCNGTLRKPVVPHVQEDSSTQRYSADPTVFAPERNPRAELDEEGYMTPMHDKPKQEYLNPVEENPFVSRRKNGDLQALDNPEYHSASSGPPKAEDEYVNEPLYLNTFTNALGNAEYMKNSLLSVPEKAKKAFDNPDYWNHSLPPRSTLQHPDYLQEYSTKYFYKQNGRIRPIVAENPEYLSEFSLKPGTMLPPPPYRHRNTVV
- T1 sequence (P06494 23-1257 partner): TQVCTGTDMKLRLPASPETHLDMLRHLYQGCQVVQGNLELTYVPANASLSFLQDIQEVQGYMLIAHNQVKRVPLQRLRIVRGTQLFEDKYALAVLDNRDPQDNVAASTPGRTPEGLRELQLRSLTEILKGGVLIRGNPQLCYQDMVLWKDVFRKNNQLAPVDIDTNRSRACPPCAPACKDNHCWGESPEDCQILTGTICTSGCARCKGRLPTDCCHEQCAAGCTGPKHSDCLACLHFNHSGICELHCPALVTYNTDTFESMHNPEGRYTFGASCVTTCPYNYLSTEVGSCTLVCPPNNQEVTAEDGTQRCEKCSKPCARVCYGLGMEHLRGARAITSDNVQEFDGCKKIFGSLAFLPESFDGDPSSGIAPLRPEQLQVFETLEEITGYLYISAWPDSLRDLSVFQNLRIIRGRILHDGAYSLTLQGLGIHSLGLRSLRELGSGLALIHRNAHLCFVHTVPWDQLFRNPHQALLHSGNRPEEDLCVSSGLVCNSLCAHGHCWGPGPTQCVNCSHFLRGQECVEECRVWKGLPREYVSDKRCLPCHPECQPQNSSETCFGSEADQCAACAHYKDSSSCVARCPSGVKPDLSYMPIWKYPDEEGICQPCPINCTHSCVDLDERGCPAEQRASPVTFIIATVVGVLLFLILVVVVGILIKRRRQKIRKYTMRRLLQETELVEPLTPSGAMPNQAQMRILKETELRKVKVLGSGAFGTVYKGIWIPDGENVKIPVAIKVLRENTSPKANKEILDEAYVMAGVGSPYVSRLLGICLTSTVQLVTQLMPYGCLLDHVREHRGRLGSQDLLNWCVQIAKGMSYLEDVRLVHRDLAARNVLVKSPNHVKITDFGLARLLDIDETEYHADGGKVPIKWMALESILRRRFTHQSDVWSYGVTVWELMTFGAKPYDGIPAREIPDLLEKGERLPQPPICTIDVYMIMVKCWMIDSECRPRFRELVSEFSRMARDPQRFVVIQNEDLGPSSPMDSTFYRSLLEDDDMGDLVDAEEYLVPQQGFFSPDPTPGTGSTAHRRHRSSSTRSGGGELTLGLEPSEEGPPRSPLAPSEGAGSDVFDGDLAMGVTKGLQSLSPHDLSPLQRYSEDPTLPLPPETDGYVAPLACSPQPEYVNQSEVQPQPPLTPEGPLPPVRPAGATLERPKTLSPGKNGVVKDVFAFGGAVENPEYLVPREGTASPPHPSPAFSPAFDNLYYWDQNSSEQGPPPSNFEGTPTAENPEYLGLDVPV
- Test protocol: In vitro phosphorylation of Akt in neonatal rat cardiomyocytes
- Assay type: cell-based
- Stated conditions: ratio of EC50s Schwann cells/cardiomyocytes

{"columns": ["Molecule", "Selectivity SC/CM"],
 "data": [
  ["huNRG1(S177-F229)(NRGE1D) (E47K_D48L_F49D_M50I) 6xHis: 6xHis-tagged NRG1 variant SEQ ID NO:127 (protein, 6xHis tag; huNRG1(S177-F229)(NRGE1D) (E47K_D48L_F49D_M50I) 6xHis) SHLVKCGESHKSFCVNGGECYMVEGSSIPSRYLCKCPNEFTGDRCQKLDIASFGGGGEGGGGAGGGGHHHHHH", 55.4019]
]}
